Test system: SNB-75 CNS
Assay: NCI-60 one-dose screen, 48 h
Details: 10 µM unless noted
The panel holds about 83,000 compounds, 20% with a hit somewhere; the sample as a whole holds those more often. Calls of active or inactive are those of the source. How the source made its calls: active means growth percent below 10; inactive means the rest.
Outcome codes: active, inactive

compound | group
COc1ccc(CNC(=O)c2c(C)n([O-])c3cc(F)c(F)cc3[n+]2=O)cc1 | inactive
CCC(=O)Nc1cc2c(cc1Cl)-c1ccccc1C2 | inactive
Cc1ccc(/C=C/C(=O)c2ccc(F)cc2)s1 | inactive
Cc1onc(-c2ccccc2Cl)c1C(=O)N[C@@H]1C(=O)N2[C@@H]1SC(C)(C)[C@@H]2C(=O)O | inactive
CC(=O)Nc1cc2c3c(cccc3c1)-c1ccccc1-2 | inactive
CN1CCC[C@@H]1CCO[C@](C)(c1ccccc1)c1ccc(Cl)cc1 | inactive
CCc1nn2c(-c3ccc(Cl)cc3C)c(-c3cc(OC)c(OC)c(OC)c3)nc2s1 | active
COc1cc(C(=O)c2cc3c(cc2C)OCO3)cc(OC)c1OC | inactive
C=C1CCC2C(C)(COC(=O)CC)C(OC(=O)CC)CCC2(C)C1C/C=C1/C(=O)OCC1OC(=O)CC (configuration not stated) | active
Cc1cc2c(cc1C)[n+](Cc1ccc3ccccc3c1)cn2Cc1ccc2ccccc2c1 | active
O=C(O)C1CCN(S(=O)(=O)c2ccc(-c3ccccc3)cc2)CC1 | inactive
COC(=O)c1c(NC(=O)CSc2nnnn2-c2ccc(OC)cc2)sc(C)c1C | inactive
O=C(CSc1ncc(-c2ccccc2)n1-c1ccccc1)Nc1ccc(-c2nc3ccccc3s2)cc1 | inactive
CCCCCN1C(=O)CCC1=O | inactive
O=C(Oc1cccc2ccccc12)c1ccccc1C(=O)c1ccccc1 | inactive
CN(C)c1ccc(-n2nc3ccccc3n2)cc1 | inactive
CCCCNCCCN(CCCC)CCCNCCCC | inactive
O=C1/C(=C/c2cccc(Cl)c2)CCc2ccccc21 | inactive
COc1ccc(-c2ccc(O)c(C(=O)/C=C/c3cc(OC)c(OC)c(OC)c3)c2)cc1 | inactive
COc1cccc(/C=N/Nc2nc3ccccc3s2)c1OC | inactive
COc1ccc(OC)c2c1CCC1(C2)NC(=O)NC1=O (configuration not stated) | inactive
Cc1ccc2nc(SCC(=O)Nc3ccc(-c4nc5ccccc5s4)c(Cl)c3)[nH]c2c1 | inactive
O=c1oc2c(cc1-c1ccc([N+](=O)[O-])cc1)C(O)Oc1ccccc1-2 (configuration not stated) | inactive
COc1ccc(Oc2ccccc2NC(=O)CNC(=O)c2cccc3ccccc23)cc1 | inactive
O=C1c2cc3c(cc2-c2c1c1ccc(Cl)cc1c(=O)n2CCCNCCO)OCO3 | active
FC(F)(F)c1ccc(-c2cnc(-c3nn[nH]n3)nc2NC2CCCCCC2)cc1 | inactive
O=C(CN1CCN(c2ccc(Cl)cc2)CC1)N1CCN(c2nnc(-c3ccc(Cl)cc3)c(-c3ccc(Cl)cc3)n2)CC1 | inactive
c1ccc2c(-c3nc4ccccc4[nH]3)cccc2c1 | inactive
Cc1ncc(C(=O)Nc2ccc(CN3CCN(C)CC3)c(C(F)(F)F)c2)cc1C#Cc1cncc2ncccc12 | inactive
Nc1ccc(Oc2c(F)c(F)c(Oc3ccc(N)cc3)c(F)c2F)cc1 | inactive
CN1CCN(c2nc3scc(-c4ccccc4)c3c(=O)[nH]2)CC1 | inactive
CCN(CC)c1ccc(N=C2C=CC(=O)C=C2NC(C)=O)cc1 | inactive
CCCn1c(N)c(C(=O)CNc2ccc(I)cc2)c(=O)[nH]c1=O | inactive
Cc1cc(-c2ccccc2)cc(C)n1 | inactive
COc1ccc(C(=O)/C=C/c2ccc(C)cc2)cc1OC | inactive
O=C1/C(=C/c2ccccc2Cl)CCc2ccccc21 | inactive
Nc1ccn(C2O[C@H](CO)[C@@H](O)[C@@H]2O)c(=O)n1 (some centres not stated) | inactive
COc1ccc(CCN2C(=O)CCC3=C2CCCC3=O)cc1OC | inactive
N#CC1c2ccccc2C=CN1C(=O)N(c1ccccc1)c1ccccc1 (configuration not stated) | inactive
CCOC(=O)c1sc(NC(=O)COc2cccc(/C=C3\Cc4ccc(Cl)cc4C3=O)c2)nc1C | inactive
COc1cc(/C=C/C(=O)C(C(=O)/C=C/c2ccc(OC(=O)CCNC34CC5CC(CC(C5)C3)C4)c(OC)c2)C(=O)CCNC23CC4CC(CC(C4)C2)C3)ccc1OC(=O)CCNC12CC3CC(CC(C3)C1)C2 (configuration not stated) | active
CC(=O)N1N=C(c2ccc(Nc3ccnc4cc(Cl)ccc34)cc2)CC1c1ccc(Cl)cc1 (configuration not stated) | inactive
